So I've got a bunch of variants here, and I need their aptazyme ON/OFF ratio values.
B1: Pistol ribozyme (parent)
chain: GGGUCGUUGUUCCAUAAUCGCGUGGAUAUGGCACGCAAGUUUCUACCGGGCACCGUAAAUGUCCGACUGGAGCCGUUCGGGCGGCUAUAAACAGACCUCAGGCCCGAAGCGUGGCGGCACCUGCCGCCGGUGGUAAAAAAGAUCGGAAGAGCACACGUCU

Variants of: B1
Test: aptazyme ON/OFF ratio, guanine; higher = stronger switching; co-transcriptional cleavage with and without guanine
Give bare numbers.

Respectfully, I request aptazyme ON/OFF ratio for each entry included below.
1. U7C U8C G9U U10G U11A C12U C13G
2. U7G G9A U10A C12A C13G
3. U7C U8C G9U U10G U11C C12G C13G

Reply:
1. 1.12
2. 1.14
3. 1.17

Respectfully, I request aptazyme ON/OFF ratio for each entry included below.
1. U7C G9U C13G
2. U7G U8G G9A U11G C12G
3. U7G U8G G9A U11G
4. U7G U8C U10G U11G C12A C13U
5. U7C U8C G9A U10G U11C C12U C13U
6. U8G G9A U10G U11A C12A C13A
7. U7A U8G G9A U10A C12A C13A
8. U7C U8G G9C U11C C13U

Reply:
1. 1.04
2. 1.39
3. 1.91
4. 1.29
5. 1.26
6. 1.29
7. 1.27
8. 1.38
